Assay: PhoP regulon inhibitors, Salmonella typhi PhoP promoter GFP reporter, confirmatory (AID 1850);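 note: 0% = induced wells with vehicle and 100% = uninduced wells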
Conditions: fluorescence, 4 h, at 50 µM, stronger effect = higher value
Out of some 310,000 compounds screened, about 1,000 (0.32%) were called active. These entries were drawn from the full list. Measured potencies and affinities stand elsewhere.

| compound | inhibition [%] |
| --- | --- |
| CN1CCN(CCCN2c3ccccc3Sc3ccc(S(=O)(=O)N(C)C)cc32)CC1 | 0.8 |
| O=C(Nc1ccccn1)c1ccc2c(c1)S(=O)(=O)c1ccccc1C2=O | -0.07 |
| COC(=O)C(C)NC(=S)N1CC2C[C@@H](C1)Cn1c2cccc1=O (stereo partly specified) | 3.1 |
| O=C(c1cc(Br)ccc1Cl)N1CCCC1 | 6 |
| COc1ccc(NC(=O)CCN2C(=O)C3CC=C(Cl)CC3C2=O)cc1 (stereo unspecified) | -3.04 |
| CC(C)C(NC(=O)/C=C/c1cccc([N+](=O)[O-])c1)C(C)C | -9.13 |
| OCCN1CCN(CCCN2c3ccccc3Sc3ccc(Cl)cc32)CC1 | 4.15 |
| Cc1cc(O)cc(O)c1C(=O)Cc1cscn1 | 5.71 |
| CN1CCN(CCCN2c3ccccc3Sc3ccc(C(F)(F)F)cc32)CC1 | 5.34 |
| CN1CCCCC1CCN1c2ccccc2Sc2ccc(S(C)=O)cc21 (stereo unspecified) | 0.68 |
| O=C1CC(c2ccccc2Cl)CC(O)=C1C=Nc1ccccc1 (stereo unspecified) | -11 |

====

Listing of entries alongside the reported inhibition.
Experiment: PhoP regulon inhibitors, Salmonella typhi PhoP promoter GFP reporter, confirmatory (AID 1850);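 note: 0% = induced wells with vehicle and 100% = uninduced wells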
Conditions: fluorescence, 4 h, at 50 µM, stronger effect = higher value
Out of some 310,000 compounds screened, about 1,000 (0.32%) were called active. Only a sample is shown. Entries with a potency or affinity are not part of this list.
measurement.kind: inhibition (%)

| compound | measurement.kind | unit.of.measure | value |
| --- | --- | --- | --- |
| CCOC(=O)N1CCc2c(sc3c2c(=O)n(Cc2ccccc2)c(=O)n3Cc2ccc(C)cc2)C1 | inhibition | % | -2.36 |
| O=C(Nc1ccccc1C(=O)N1CCOCC1)C1CC(=O)N(C2CCCC2)C1 (stereo not drawn) | inhibition | % | -0.19 |
| O=C(NC1CCCCCCC1)C1CCN(S(=O)(=O)N2CCCC2)CC1 | inhibition | % | 11 |
| COc1cc(CNCCO)cc(Cl)c1OCc1ccccc1Cl | inhibition | % | -3.95 |
| CSc1cccc(NC(=O)CCCOc2ccc(Cl)cc2C)c1 | inhibition | % | -5.44 |
| CC[n+]1c(/C=C/N(C)c2ccccc2)sc2ccc(Cl)cc21 | inhibition | % | -2.8 |
| O=C(NCC1CCCO1)c1onc(CSc2ccc(F)c(F)c2)c1C(=O)O (stereo not drawn) | inhibition | % | 1.53 |
| CCn1c(/C=C/N(C)c2ccccc2)[n+](CC)c2ccc(Cl)cc21 | inhibition | % | 20.2 |
| Cc1ccc(C)c2[nH]c(=O)c(CN(CC3CCCO3)S(=O)(=O)c3ccc4c(c3)OCCO4)cc12 (stereo not drawn) | inhibition | % | -7.59 |
| O=C(N/N=C/c1sc2ccccc2c1O)c1ccccc1 | inhibition | % | -3.49 |
| CN(C)c1ccc(/C=[N+](\[O-])C2N(c3ccccc3)C(=S)SC2(C)C)cc1 (stereo not drawn) | inhibition | % | -5.4 |
| CCCC(=O)c1ccc(N2CCCC2)c(F)c1 | inhibition | % | 0.25 |
| O=C(N/N=C/c1ccccc1O)c1cccc2ccccc12 | inhibition | % | 3.31 |
| Cc1c(C(=O)N2CCOCC2)sc2ncn(CC(=O)N3CCC(C)CC3)c(=O)c12 | inhibition | % | 0.7 |
| CCn1cc(/C=C/C(=O)c2ccc(O)cc2)c(C)n1 | inhibition | % | 2.07 |
| Fc1ccc(CCNCc2ccc(Br)cc2)cc1 | inhibition | % | -3.63 |
| O=C(N/C(=C/c1ccco1)C(=O)N1CCOCC1)c1ccccc1Br | inhibition | % | 7.88 |
| CCC(C)Oc1ccc(C(=O)Nc2ccc(CN3CCOCC3)cc2)cc1 (stereo not drawn) | inhibition | % | -2.81 |
| O=C(Nc1cccnc1Cl)c1cc(-c2ccc(F)cc2)on1 | inhibition | % | 5.5 |
| O=C(CCN1C(=O)c2ccccc2C1=O)Nn1cnnc1 | inhibition | % | -10.1 |
| COc1ccc(C(=O)N/N=C/c2c[nH]c3ccccc23)cc1 | inhibition | % | 4.58 |
| O=C(NNc1nc2ccccc2s1)c1ccc(F)cc1 | inhibition | % | -6.05 |
| COc1ccc2cc(C(=O)N/N=C/c3sc4ccccc4c3O)ccc2c1 | inhibition | % | -4.14 |
